target: T1, alphaVbeta3 integrin, native human, on rhabdomyosarcoma (RD) cells and on human umbilical vein endothelial … (human, UniProt P06756 31-1048; P05106 27-788); assay: flow cytometry on RD cells expressing alphaVbeta3; reference chimeric HLMC
T1 construct: whole, on cells; also called αVβ3; native human β3
T1 sequence (P06756 31-1048, chain 1 of 2): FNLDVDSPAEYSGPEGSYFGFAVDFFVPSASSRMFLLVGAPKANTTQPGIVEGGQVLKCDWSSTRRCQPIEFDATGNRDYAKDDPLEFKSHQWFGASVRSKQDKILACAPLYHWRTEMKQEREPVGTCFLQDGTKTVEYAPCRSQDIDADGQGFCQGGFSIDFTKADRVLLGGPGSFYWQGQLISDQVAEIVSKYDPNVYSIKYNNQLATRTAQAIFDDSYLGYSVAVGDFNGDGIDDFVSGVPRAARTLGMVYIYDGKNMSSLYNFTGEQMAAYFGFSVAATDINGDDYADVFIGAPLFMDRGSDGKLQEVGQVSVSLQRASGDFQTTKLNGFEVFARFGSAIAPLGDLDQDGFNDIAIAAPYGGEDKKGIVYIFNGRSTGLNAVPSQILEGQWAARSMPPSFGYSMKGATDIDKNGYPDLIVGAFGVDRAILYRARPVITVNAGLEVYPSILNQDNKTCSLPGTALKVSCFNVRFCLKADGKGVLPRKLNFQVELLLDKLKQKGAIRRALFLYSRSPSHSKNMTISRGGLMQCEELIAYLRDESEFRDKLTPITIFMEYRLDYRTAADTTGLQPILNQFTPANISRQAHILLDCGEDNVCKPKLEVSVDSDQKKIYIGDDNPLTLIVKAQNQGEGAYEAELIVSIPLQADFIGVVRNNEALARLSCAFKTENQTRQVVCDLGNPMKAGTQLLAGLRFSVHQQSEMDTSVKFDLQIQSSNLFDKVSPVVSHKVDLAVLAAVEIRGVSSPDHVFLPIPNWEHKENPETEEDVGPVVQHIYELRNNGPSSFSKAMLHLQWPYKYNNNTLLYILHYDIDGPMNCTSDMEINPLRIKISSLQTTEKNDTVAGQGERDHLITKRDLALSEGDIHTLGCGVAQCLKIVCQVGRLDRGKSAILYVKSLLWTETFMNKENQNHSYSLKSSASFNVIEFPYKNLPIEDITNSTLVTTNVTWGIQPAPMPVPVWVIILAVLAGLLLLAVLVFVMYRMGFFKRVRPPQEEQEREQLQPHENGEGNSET
T1 sequence (P05106 27-788, chain 2 of 2): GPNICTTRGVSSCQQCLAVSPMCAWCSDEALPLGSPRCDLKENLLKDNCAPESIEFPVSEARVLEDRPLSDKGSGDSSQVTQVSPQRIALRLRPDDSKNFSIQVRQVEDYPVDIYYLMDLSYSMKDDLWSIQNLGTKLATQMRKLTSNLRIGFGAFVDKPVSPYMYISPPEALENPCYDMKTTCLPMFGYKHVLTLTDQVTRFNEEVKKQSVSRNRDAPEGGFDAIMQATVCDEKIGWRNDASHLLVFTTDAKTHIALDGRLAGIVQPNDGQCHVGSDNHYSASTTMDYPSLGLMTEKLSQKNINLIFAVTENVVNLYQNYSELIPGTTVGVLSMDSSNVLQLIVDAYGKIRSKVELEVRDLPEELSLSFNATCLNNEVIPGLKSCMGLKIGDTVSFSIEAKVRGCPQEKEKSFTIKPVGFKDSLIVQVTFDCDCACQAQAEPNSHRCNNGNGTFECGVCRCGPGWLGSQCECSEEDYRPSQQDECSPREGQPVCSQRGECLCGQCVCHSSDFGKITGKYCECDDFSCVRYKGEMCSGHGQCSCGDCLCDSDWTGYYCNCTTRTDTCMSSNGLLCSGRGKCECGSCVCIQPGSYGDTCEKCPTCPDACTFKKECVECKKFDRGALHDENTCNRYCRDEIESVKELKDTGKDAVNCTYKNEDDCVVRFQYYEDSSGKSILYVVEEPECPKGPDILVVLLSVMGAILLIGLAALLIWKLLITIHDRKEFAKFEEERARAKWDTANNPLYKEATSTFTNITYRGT
Each item that follows carries a reported relative binding score (EC50 of variant divided by EC50 of chimeric HLMC).
Give just the numeric value; ratio need not be written.

// below: answered binders
{"columns": ["Binder", "Unit String", "Result Value"],
 "data": [
  ["VH1/Vκ3 Composite Human Antibody variant of HLMC (antibody, human IgG1, kappa, V domains shown, also called VH1/Vk3) VH: QAQLVQSGPELKKPGASVKVSCKASGYLFSNSWMNWVKQRPGAGLEWIGRIFPGDGDTNYNGKFKGRATITADKSTSTAYMELSSLRSEDSAVYFCARWGLTRDRRLYLDYWGQGTTVTVSS VL: DIVMTQSPDSLAVSLGERATINCKSSQSLLYSSNQKNYLAWYQQKPGQAPRLLIYWASTRESGVPDRFSGSGSGTDFTLTISSLQAEDVAVYYCKQYYTYPLTFGQGTKLEIKR", "ratio", 1.14],
  ["VH3/Vκ3 Composite Human Antibody variant of HLMC (antibody, human IgG1, kappa, V domains shown, also called VH3/Vk3) VH: QAQLVQSGAEVKKPGASVKVSCKASGYLFSNSWMNWVKQRRGAGLEWIGRIFPGDGDTNYNGKFKGRATITADKSTSTAYMELSSLRSEDTAVYFCARWGLTRDRRLYLDYWGQGTTVTVSS VL: DIVMTQSPDSLAVSLGERATINCKSSQSLLYSSNQKNYLAWYQQKPGQAPRLLIYWASTRESGVPDRFSGSGSGTDFTLTISSLQAEDVAVYYCKQYYTYPLTFGQGTKLEIKR", "ratio", 0.87],
  ["VH4/Vκ3 Composite Human Antibody variant of HLMC (antibody, human IgG1, kappa, V domains shown, also called VH4/Vk3) VH: QAQLVQSGAEVKKPGASVKVSCKASGYLFSNSWMNWVKQRRGAGLEWIGRIFPGDGDTNYNGKFKGRVTITADKSTSTAYMELSSLRSEDTAVYFCARWGLTRDRRLYLDYWGQGTTVTVSS VL: DIVMTQSPDSLAVSLGERATINCKSSQSLLYSSNQKNYLAWYQQKPGQAPRLLIYWASTRESGVPDRFSGSGSGTDFTLTISSLQAEDVAVYYCKQYYTYPLTFGQGTKLEIKR", "ratio", 0.57],
  ["VH3/Vκ2 Composite Human Antibody variant of HLMC (antibody, human IgG1, kappa, V domains shown, also called VH3/Vk2) VH: QAQLVQSGAEVKKPGASVKVSCKASGYLFSNSWMNWVKQRRGAGLEWIGRIFPGDGDTNYNGKFKGRATITADKSTSTAYMELSSLRSEDTAVYFCARWGLTRDRRLYLDYWGQGTTVTVSS VL: DIVMTQSPDSLAVSLGERATINCKSSQSLLYSSNQKNYLAWYQQKPGQAPRLLIYWASTRESGVPDRFTGSGSGTDFTLTISSLQAEDVAVYYCKQYYTYPLTFGQGTKLEIKR", "ratio", 13.2]
]}

Would you kindly look at the next entry?
INPUT: Can you look up the measured relative binding score (EC50 of variant divided by EC50 of chimeric HLMC) of VH5/Vκ1 Composite Human Antibody variant of HLMC (antibody, human IgG1, kappa, V domains shown, also called VH5/Vk1) VH: QAQLVQSGAEVKKPGASVKVSCKASGYLFSNSWMNWVKQRRGAGLEWIGRIFPGDGDTNYNGKFKGRVTITADKSTSTAYMELSSLRSEDTAVYYCARWGLTRDRRLYLDYWGQGTTVTVSS VL: DIVMTQSPDSLVVSLGERATINCKSSQSLLYSSNQKNYLAWYQQKSGQAPRLLIYWASTRESGVPDRFTGSGSGTDFTLTISSLQAEDVAVYYCKQYYTYPLTFGQGTKLEIKR for me?
OUTPUT: 1.23
